Attribution: ChEMBL document CHEMBL3872255

TEST_SUMMARY: Ulcerogenic effect in albino rat assessed as ulcer index […], po administered 2 to 3 days
Format: toxicity, organism-based
CONDITION_CONTEXT: in vivo
METRIC: UI
// no unit string in output, number only

COc1ccc(-c2nc(NCC(=O)O)sc2-c2ccc(OC)cc2)cc1 = 8.5
O=C(O)CNc1nc(-c2ccccc2)c(-c2ccccc2)s1 = 9.39
COc1ccc2c(c1)c(CC(=O)O)c(C)n2C(=O)c1ccc(Cl)cc1 [INDOMETHACIN] = 19.5
O=C(O)Cn1cnc(-c2ccccc2)c1-c1ccccc1 = 13.3

Now turn to the next compound.
Read off the recorded UI for COc1ccc(-c2ncn(CC(=O)O)c2-c2ccc(OC)cc2)cc1
9.75
